- assayComment: Cytotoxicity against human HBI10A cells
- Type: cell-based
- cond: HBI10A cells, read-out: CC50
The entries below are paired with their reported CC50.
Expressed in µM, but write only the number.

O=c1c2ccc(NCCO)c3c2n(c(=O)n1-c1cccc(Cl)c1)CCC3 | 12

q: Data request, read-out CC50, for O=C(O)c1cc(Cl)cc(-n2c(=O)c3ccc(NC4CCN(Cc5ccccc5)CC4)c4c3n(c2=O)CCC4)c1
a: 42

* * *

- assayComment: Cytotoxicity against human HBI10A cells
- Format: cell-based
- cond: HBI10A cells, read-out: CC50
Mark 1 only when CC50 stays strictly below 9 µM. Values equal to the cut-off are -1.

For orientation, consider the following solved cases.
Cn1c(=O)n(-c2cccc(Cl)c2)c(=O)c2ccc(NCCO)cc21 | -1
O=C1c2cccc3c(NCCO)ccc(c23)C(=O)N1c1cccc(Cl)c1 | -1
CC[n+]1c(-c2ccccc2)c2cc(N)ccc2c2ccc(N)cc21 [HOMIDIUM BROMIDE] | 1
O=C(O)c1cccc(CN2CCn3c(=O)n(-c4cccc(Cl)c4)c(=O)c4cccc2c43)c1 | -1
O=c1[nH]c2cc(NCCO)ccc2c(=O)n1-c1cccc(Cl)c1 | -1

q: Find out if reported CC50 for O=C(NC1CCN(Cc2ccccc2)CC1)c1cccc2c(=O)n(-c3cccc(Cl)c3)c(=O)[nH]c12 is less than 9 µM
a: 1

q: Would you kindly repeat that for Cn1c(=O)n(-c2cccc(Cl)c2)c(=O)c2ccc(NC3CCN(Cc4ccccc4)CC3)cc21 ?
a: -1

q: Would you kindly repeat that for O=C1c2cccc3c(NC4CCN(Cc5ccccc5)CC4)ccc(c23)C(=O)N1c1cccc(Br)c1 ?
a: 1
